- test-system: TEAD4 (Homo sapiens (Human))
- protocol: TR-FRET lipid pocket probe competition assay (Lipid HTRF), TEAD4
- Type: binding
- conditions: 4 hours pre-incubation; read-out: Lipid HTRF TEAD4 IC50
# IC50 per entry

# compound, unit-abbrev, IC50
measured = [
    ("C=CC(=O)NCc1nn(-c2ccc(S(F)(F)(F)(F)F)cc2)c2cccc(C#N)c12 [Compound 14]", "nM", 33),
    ("C[C@@H](O)/C=C/C(=O)N1CC(c2nn(-c3ccc(OC(F)(F)F)cc3)c3nccc(CO)c23)C1 [Compound 66]", "nM", 33),
    ("C=C(F)C(=O)N1CC(c2nn(-c3ccc(OC(F)(F)F)cc3)c3nccc(C#N)c23)C1 [Compound 80]", "nM", 16),
    ("C=CC(=O)NCc1nn(-c2ccc(OC(F)(F)F)cc2)c2nccc(-c3cnn(CCOC)c3)c12 [Compound 167]", "nM", 35),
    ("C=C(F)C(=O)N1CC(c2nn(-c3ccc(OC(F)(F)F)cc3)c3nccc(N4CC([C@@H](O)CO)C4)c23)C1 [Compound 58]", "nM", 9.6),
    ("O=C(/C=C\\Cl)NCc1nn(-c2ccc(OC(F)(F)F)cc2)c2nccc([C@@H](O)CO)c12 [Compound 26]", "nM", 14),
    ("C=CC(=O)NCc1nn(-c2ccc(OC(F)(F)F)cc2)c2nccc(CN(C)C)c12 [Compound 105]", "nM", 450),
    ("C=C(F)C(=O)N1CC(c2nn(-c3ccc(OC(F)(F)F)cc3)c3nccc(-c4cnn(CCS(C)(=O)=O)c4)c23)C1 [Compound 179]", "nM", 17),
    ("C=CC(=O)NCc1nn(-c2ccc(OC(F)(F)F)cc2)c2nccc(N[C@H]3C[C@@H](O)C3)c12 [Compound 143]", "nM", 65),
    ("C=CC(=O)NCc1nn(-c2ccc(OC(F)(F)F)cc2)c2cccnc12 [Compound 187]", "nM", 55),
    ("C=C(F)C(=O)N1CC(c2nn(-c3ccc(OC(F)(F)F)cc3)c3nccc(N4CC(O)(CO)C4)c23)C1 [Compound 75]", "nM", 5.2),
    ("C=CC(=O)NCc1nn(-c2ccc(S(F)(F)(F)(F)F)cc2)c2ccccc12 [Compound 3]", "nM", 7.9),
    ("C=CC(=O)NCc1nn(-c2ccc(OC(F)(F)F)cc2)c2nccc(N3CCC(O)CC3)c12 [Compound 91]", "nM", 28.5),
    ("C=C(F)C(=O)N1CC(c2nn(-c3ccc(OC(F)(F)F)cc3)c3nccc(-c4cnn(CC(=O)N(C)C)c4)c23)C1 [Compound 180]", "nM", 110),
    ("O=C(C1=CCOC1)N1CC(c2nn(-c3ccc(OC(F)(F)F)cc3)c3nccc(CO)c23)C1 [Compound 152]", "nM", 140),
]

###

- test-system: TEAD4 (Homo sapiens (Human), UniProt Q15561)
- Sequence (Q15561 whole entry, species assumed): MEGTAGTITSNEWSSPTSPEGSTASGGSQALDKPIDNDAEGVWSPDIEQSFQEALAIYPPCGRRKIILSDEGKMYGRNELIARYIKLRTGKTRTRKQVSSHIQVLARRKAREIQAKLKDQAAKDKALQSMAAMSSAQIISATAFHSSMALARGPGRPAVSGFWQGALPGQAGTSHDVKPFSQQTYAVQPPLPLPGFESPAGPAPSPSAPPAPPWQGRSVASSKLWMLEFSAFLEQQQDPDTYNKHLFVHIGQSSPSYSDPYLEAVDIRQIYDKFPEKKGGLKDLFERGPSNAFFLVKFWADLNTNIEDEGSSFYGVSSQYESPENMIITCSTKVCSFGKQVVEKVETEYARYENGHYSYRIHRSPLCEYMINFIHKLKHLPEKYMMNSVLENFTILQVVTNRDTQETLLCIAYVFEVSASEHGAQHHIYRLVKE
- protocol: TR-FRET lipid pocket probe competition assay (Lipid HTRF), TEAD4;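 also: His-tagged TEAD4 with biotinylated lipid-pocket probe, read by Europium anti-His and XL665 streptavidin, where probe displacement lowers the TR-FRET signal, IC50 from a four-parameter fit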
- Assay type: binding
- conditions: 4 hours pre-incubation; read-out: Lipid HTRF TEAD4 IC50
Where a name gives a salt, the structure may show the parent alone.
API: label(entry) gives 1 if the entry's IC50 is strictly smaller than 30 nM; on equality or larger values it gives -1.

# compound, assigned-label
measured = [
    ("C=C(F)C(=O)NCc1nn(-c2ccc(OC(F)(F)F)cc2)c2nccc(CO)c12 [Compound 68]", -1),
    ("C=CC(=O)NCc1nn(-c2ccc(OC(F)(F)F)cc2)c2nccc(CN3CC(O)C3)c12 [Compound 54]", -1),
    ("C=CC(=O)NCc1nn(-c2ccc(OC(F)(F)F)cc2)c2nccc(O[C@H]3C[C@H](O)C3)c12 [Compound 67]", -1),
    ("C=C(F)C(=O)N1CC(c2nn(-c3ccc(OC(F)(F)F)cc3)c3nccc(N4CC([C@H](O)CO)C4)c23)C1 [Compound 141]", 1),
    ("C=CC(=O)NCc1nn(-c2ccc(OC(F)(F)F)cc2)c2nccc(-c3c[nH]cn3)c12 [Compound 119]", -1),
    ("C=CC(=O)NCc1nn(-c2ccc(OC(F)(F)F)cc2)c2nccc(N3CC(CO)C3)c12 [Compound 43]", 1),
    ("C=CC(=O)NCc1nn(-c2ccc(OC(F)(F)F)cc2)c2nccc(N3CCC[C@@H](O)C3)c12 (stereo in doubt) [Compound 65]", -1),
    ("C=CC(=O)NCc1nn(-c2ccc(OC(F)(F)F)cc2)c2nccc([C@H](O)COC(=O)CN)c12 [Compound 145, formate]", -1),
    ("C=C(F)C(=O)N1CC(c2nn(-c3ccc(OC(F)(F)F)cc3)c3nccc(-c4cnn(CCO)c4)c23)C1 [Compound 28]", -1),
    ("COC/C=C/C(=O)N1CC(c2nn(-c3ccc(OC(F)(F)F)cc3)c3nccc(CO)c23)C1 [Compound 40]", 1),
    ("Cc1ccnc2c1c(C1CN(C(=O)/C=C/CO)C1)nn2-c1ccc(OC(F)(F)F)cc1 [Compound 96]", 1),
    ("C=C(F)C(=O)N1CC(c2nn(-c3ccc(OC(F)(F)F)cc3)c3nccc([C@H](O)CO)c23)C1 [Compound 31]", 1),
    ("C=CC(=O)NCc1nn(-c2ccc(OC(F)(F)F)cc2)c2nccc(C(C)(C)O)c12 [Compound 135]", -1),
    ("C=CC(=O)NCc1nn(-c2ccc(S(F)(F)(F)(F)F)cc2)c2cccc(CO)c12 [Compound 5]", -1),
    ("O=C(/C=C/CO)N1CC(c2nn(-c3ccc(OC(F)(F)F)cc3)c3nccc(-c4cn[nH]c4)c23)C1 [Compound 50]", 1),
]

###

- test-system: TEAD1 (Homo sapiens (Human))
- Sequence (P28347 whole entry, species assumed): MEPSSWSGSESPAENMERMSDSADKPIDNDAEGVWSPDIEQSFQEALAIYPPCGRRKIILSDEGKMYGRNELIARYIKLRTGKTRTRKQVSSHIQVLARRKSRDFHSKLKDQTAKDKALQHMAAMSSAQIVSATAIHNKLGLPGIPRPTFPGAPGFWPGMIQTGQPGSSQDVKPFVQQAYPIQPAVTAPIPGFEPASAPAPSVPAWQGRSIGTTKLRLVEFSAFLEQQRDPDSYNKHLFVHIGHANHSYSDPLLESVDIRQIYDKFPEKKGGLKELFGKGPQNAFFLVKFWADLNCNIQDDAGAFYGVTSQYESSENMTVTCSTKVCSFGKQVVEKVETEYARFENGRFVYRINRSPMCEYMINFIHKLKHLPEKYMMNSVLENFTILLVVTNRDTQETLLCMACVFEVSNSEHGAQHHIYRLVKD
- protocol: TR-FRET lipid pocket probe competition assay (Lipid HTRF), TEAD1;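 also: His-tagged TEAD1 with biotinylated probe, detected via Europium anti-His and XL665 streptavidin, probe displacement lowers TR-FRET signal, IC50 from four-parameter nonlinear fit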
- Format: binding
- conditions: 4 hours pre-incubation; read-out: Lipid HTRF TEAD1 IC50
pIC50: −log10 of the molar value.
# pIC50 per entry
observation-type: pIC50

# compound, value-observed
measured = [
    ("C=CC(=O)NCc1nn(-c2ccc(OC(F)(F)F)cc2)c2nccc(-c3cnn(C(C)C)c3)c12", 6.92),
    ("C=C(F)C(=O)N1CC(c2nn(-c3ccc(OC(F)(F)F)cc3)c3nccc(N4CC(O)(CO)C4)c23)C1", 7.35),
    ("C=CC(=O)NCc1nn(-c2ccc(OC(F)(F)F)cc2)c2nccc(-c3cnn(CCOC)c3)c12", 7.24),
    ("C=CC(=O)NCc1nn(-c2ccc(OC(F)(F)F)cc2)c2nccc(N3CC(O)(CO)C3)c12", 7.39),
    ("C=C(F)C(=O)N1CC(c2nn(-c3ccc(OC(F)(F)F)cc3)c3nccc(-c4cn[nH]c4)c23)C1", 7.60),
    ("C=C(C)S(=O)(=O)N1CC(c2nn(-c3ccc(OC(F)(F)F)cc3)c3nccc([C@H](O)CO)c23)C1", 7.35),
    ("C=CC(=O)NCc1nn(-c2ccc(OC(F)(F)F)cc2)c2nccc([C@@H](O)CO)c12 (stereo in doubt)", 6.64),
    ("C=C(F)C(=O)N1CC(c2nn(-c3ccc(OC(F)(F)F)cc3C)c3nccc(CO)c23)C1", 6.85),
    ("CC#CC(=O)N1CC(c2nn(-c3ccc(OC(F)(F)F)cc3)c3nccc([C@@H](O)CO)c23)C1", 7.49),
    ("C=C(F)C(=O)N1CC(c2nn(-c3ccc(OC(F)(F)F)cc3)c3nccc(N4CC(F)(CO)C4)c23)C1", 7.38),
    ("O=C(C#CCO)NCc1nn(-c2ccc(OC(F)(F)F)cc2)c2nccc(CO)c12", 8.19),
    ("C=C(F)C(=O)N1CC(c2nn(-c3ccc(OC(F)(F)F)cc3)c3nccc(-c4cnn(C(C)C)c4)c23)C1", 7.06),
    ("C=CC(=O)NCc1nn(-c2ccc(OC(F)(F)F)cc2)c2nccc(N3CCC(O)CC3)c12", 7.36),
    ("C=CC(=O)NCc1nn(-c2ccc(OC(F)(F)F)cc2)c2nccc(N[C@H]3C[C@H](O)C3)c12", 6.85),
    ("C=C(F)C(=O)N1CC(c2nn(-c3ccc(OC(F)(F)F)cc3F)c3nccc(CO)c23)C1", 7.24),
]

###

- test-system: TEAD3 (Homo sapiens (Human))
- Sequence (Q99594 whole entry, species assumed): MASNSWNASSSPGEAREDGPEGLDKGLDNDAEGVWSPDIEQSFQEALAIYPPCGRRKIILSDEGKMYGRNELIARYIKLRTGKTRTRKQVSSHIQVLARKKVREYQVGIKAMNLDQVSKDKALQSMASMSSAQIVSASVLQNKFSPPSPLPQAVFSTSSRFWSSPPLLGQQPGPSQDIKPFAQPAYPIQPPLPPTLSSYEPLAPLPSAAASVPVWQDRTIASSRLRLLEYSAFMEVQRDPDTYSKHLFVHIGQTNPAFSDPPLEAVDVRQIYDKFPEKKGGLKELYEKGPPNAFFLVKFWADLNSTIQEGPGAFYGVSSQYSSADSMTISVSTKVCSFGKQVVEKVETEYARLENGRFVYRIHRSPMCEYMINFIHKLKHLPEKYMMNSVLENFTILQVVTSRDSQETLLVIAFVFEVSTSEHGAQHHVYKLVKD
- protocol: TR-FRET lipid pocket probe competition assay (Lipid HTRF), TEAD3
- Assay type: binding
- conditions: 4 hours pre-incubation; read-out: Lipid HTRF TEAD3 IC50
pIC50: −log10 of the molar value.
observation-type: pIC50

# molecule, observation-type, value-observed
measured = [
    ("C=CC(=O)NCc1nn(-c2ccc(OC(F)(F)F)cc2)c2nccc(-c3cnn(C4CC4)c3)c12 [Compound 173]", "pIC50", 4.58),
    ("C=CC(=O)NCc1nn(-c2ccc(OC(F)(F)F)cc2)c2nccc(-c3c[nH]cn3)c12 [Compound 119]", "pIC50", 6.26),
    ("C=CC(=O)NCc1nn(-c2ccc(OC(F)(F)F)cc2)c2nccc([C@H](C)O)c12 [Compound 63]", "pIC50", 4.98),
    ("C=CC(=O)NCc1nn(-c2ccc(OC(F)(F)F)cc2)c2cccc(CO)c12 [Compound 4]", "pIC50", 6.57),
    ("C=C(Cl)C(=O)N1CC(c2nn(-c3ccc(OC(F)(F)F)cc3)c3nccc([C@@H](O)CO)c23)C1 [Compound 110]", "pIC50", 7.77),
    ("C=CC(=O)NCc1nn(-c2ccc(S(F)(F)(F)(F)F)cc2)c2ccccc12 [Compound 3]", "pIC50", 6.68),
    ("C=CC(=O)NCc1nn(-c2ccc(OC(F)(F)F)cc2)c2nccc(N3CCC(O)CC3)c12 [Compound 91]", "pIC50", 4.39),
    ("O=C(/C=C\\Cl)NCc1nn(-c2ccc(OC(F)(F)F)cc2)c2nccc([C@H](O)CO)c12 [Compound 53]", "pIC50", 4.30),
    ("C=CC(=O)NCc1nn(-c2ccc(OC(F)(F)F)cc2)c2nccc(-c3cnn(CCO)c3)c12 [Compound 35]", "pIC50", 6.19),
    ("C=CC(=O)NCc1nn(-c2ccc(OC(F)(F)F)cc2)c2nccc([C@H]3C[C@H](O)C3)c12 [Compound 56]", "pIC50", 4.30),
    ("C=CC(=O)NCc1nn(-c2ccc(OC(F)(F)F)cc2)c2nccc([C@@H](O)CO)c12 (stereo in doubt) [Compound 16]", "pIC50", 6.17),
    ("C=CC(=O)NCc1nn(-c2ccc(S(F)(F)(F)(F)F)cc2)c2nccc([C@H](O)CO)c12 (stereo in doubt) [Compound 23]", "pIC50", 6.05),
    ("O=C(/C=C/CO)N1CC(c2nn(-c3ccc(OC(F)(F)F)cc3)c3nccc([C@@H](O)CO)c23)C1 [Compound 95]", "pIC50", 7.04),
    ("O=C(/C=C/CO)N1CC(c2nn(-c3ccc(OC(F)(F)F)cc3)c3nccc(N4CC(O)C4)c23)C1 [Compound 70]", "pIC50", 6.85),
    ("C=C(F)C(=O)N1CC(c2nn(-c3ccc(OC(F)(F)F)cc3Cl)c3nccc(CO)c23)C1 [Compound 183]", "pIC50", 5.96),
    ("C=C(F)C(=O)N1CC(c2nn(-c3ccc(OC(F)(F)F)cc3)c3nccc(-c4cnn(CCO)c4)c23)C1 [Compound 28]", "pIC50", 5.24),
    ("O=C(/C=C/CF)NCc1nn(-c2ccc(OC(F)(F)F)cc2)c2nccc(CO)c12 [Compound 121]", "pIC50", 6.46),
    ("C=CC(=O)NCc1nn(-c2ccc(OC(F)(F)F)cc2)c2nccc(N3CCC[C@H](O)C3)c12 (stereo in doubt) [Compound 33]", "pIC50", 4.77),
    ("C=CC(=O)NCc1nn(-c2ccc(OC(F)(F)F)cc2)c2nccc(C(=O)NC)c12 [Compound 30]", "pIC50", 5.59),
    ("C=CC(=O)NCc1nn(-c2ccc(S(F)(F)(F)(F)F)cc2)c2ncccc12 [Compound 13]", "pIC50", 6.64),
    ("C=CC(=O)NCc1nn(-c2ccc(OC(F)(F)F)cc2)c2nccc(N3CC(CO)C3)c12 [Compound 43]", "pIC50", 6.11),
    ("C=CC(=O)NCc1nn(-c2ccc(OC(F)(F)F)cc2)c2nccc(-c3cnn(CCN(C)C)c3)c12 [Compound 172]", "pIC50", 4.72),
    ("C=C(F)C(=O)N1CC(c2nn(-c3ccc(OC(F)(F)F)cc3)c3nccc(C#N)c23)C1 [Compound 80]", "pIC50", 7.54),
    ("C#Cc1ccnc2c1c(C1CN(C(=O)C=C)C1)nn2-c1ccc(OC(F)(F)F)cc1 [Compound 48]", "pIC50", 8.32),
    ("C=C(F)C(=O)N1CC(c2nn(-c3ccc(OC(F)(F)F)cc3)c3nccc(N4CC(O)(CO)C4)c23)C1 [Compound 75]", "pIC50", 5.96),
    ("O=C(/C=C\\Cl)NCc1nn(-c2ccc(OC(F)(F)F)cc2)c2nccc([C@@H](O)CO)c12 [Compound 26]", "pIC50", 4.30),
    ("O=C(N1CC(c2nn(-c3ccc(OC(F)(F)F)cc3)c3nccc(CO)c23)C1)C12CC1C2 (stereo not shown) [Compound 153]", "pIC50", 4.30),
    ("C=CC(=O)NCc1nn(-c2ccc(OC(F)(F)F)cc2)c2cccnc12 [Compound 187]", "pIC50", 6.02),
    ("C/C=C/C(=O)NCc1nn(-c2ccc(OC(F)(F)F)cc2)c2nccc(CO)c12 [Compound 61]", "pIC50", 4.30),
    ("C=CC(=O)NCc1nn(-c2ccc(OC(F)(F)F)cc2)c2nccc(-c3c[nH]nn3)c12 [Compound 51]", "pIC50", 6.29),
    ("C=CC(=O)NCc1nn(-c2ccc(S(F)(F)(F)(F)F)cc2)c2cccc(C#N)c12 [Compound 14]", "pIC50", 6.85),
]
